Values of pEC50 reported for Muscarinic acetylcholine receptor M3 (Homo sapiens, UniProt P20309) appear below.
pEC50: −log10 of the molar value.

SMILES_TEXT	pEC50
COc1cccc(CC[N+](C)(C)C)c1	5.00
C[N+](C)(C)CCc1ccc2c(c1)OCC2	5.43

* * *

biological target: Muscarinic acetylcholine receptor M2 (Homo sapiens, UniProt P08172); experiment: Agonist activity at recombinant human muscarinic M2 receptor expressed in CHO cells assessed as upregulation in ERK1/2 phosphorylation after 5 mins by alphascreen assay; type: cell-based
QUANTITY_NAME: EC50 (nM)

SMILES_TEXT	RESULT
COc1cccc(CC[N+](C)(C)C)c1	830
C[N+](C)(C)CCc1ccc2c(c1)OCC2	240

* * *

target: Muscarinic acetylcholine receptor M1 (Homo sapiens); experiment: Agonist activity at recombinant human muscarinic M1 receptor expressed in CHO cells assessed as upregulation in ERK1/2 phosphorylation after 5 mins by alphascreen assay; type: cell-based
pEC50: −log10 of the molar value.

SMILES_TEXT	pEC50
COc1cccc(CC[N+](C)(C)C)c1	6.27

* * *

target: Muscarinic acetylcholine receptor M3 (Homo sapiens); experiment: Displacement of [3H]N-methyl-scopolamine bromide from human recombinant muscarinic M3 receptor expressed in HEK293T cell membranes after 1 hr by liquid scintillation counting method; type: cell-based, HEK-293T
QUANTITY_NAME: log10 Ki (log10 of the value in µM)

MOLECULE	log10 Ki
COc1ccc(F)c(CC[N+](C)(C)C)c1	1.15
C[N+](C)(C)CCc1ccc2c(c1)OCC2	0.80
COc1cccc(/C=C/C[N+](C)(C)C)c1	1.32
C[N+](C)(C)CCc1cccc(O)c1	1.11
COc1cccc2c1CC(C[N+](C)(C)C)CC2 (centres undefined)	0.59
c1cncc(COCC2CCNC2)c1 (centres undefined)	1.56
COc1ccccc1CC[N+](C)(C)C	0.67
C[N+](C)(C)CCc1ccc2ccoc2c1	-1.39
CNCCc1cccc(OC)c1	-0.11
C[N+](C)(C)C1CCc2cccc(O)c2C1 (centres undefined)	1.20
COc1cccc2c1CC[N+](C)(C)C2	1.38
C[N+]1(C)CCC(OCc2nccs2)C1 (centres undefined)	1.08
CCOc1cccc(CC[N+](C)(C)C)c1	1.63

* * *

target: Muscarinic acetylcholine receptor M2 (Homo sapiens); assay: Agonist activity at human recombinant muscarinic M2 receptor co-expressed with Galphaqi5-HA in African green monkey COS7 cells assessed as IP accumulation after 2 hrs in presence of myo-[3H]inositol by liquid scintillation counting method relative to carbachol; assay type: functional
Kind request: treat 30% as inclusive, so Emax at 30% or higher is MET, anything lower is NOT MET.

MOLECULE	DISCRETE_LABEL
C[N+](C)(C)CCc1cccc(O)c1	MET
CN1CCCC(OCc2cccnc2)C1 (stereo not drawn)	MET
COc1cccc(CC[N+](C)(C)C)c1	MET
c1cncc(COC2CCCNC2)c1 (stereo not drawn)	MET
C[N+]1(C)CCC(OCc2nccs2)C1 (stereo not drawn)	NOT MET
c1csc(COC2CCNC2)n1 (stereo not drawn)	MET
CNCCc1cccc(OC)c1	NOT MET
c1cncc(COCC2CCNC2)c1 (stereo not drawn)	MET

* * *

Below, each entry is listed alongside its reported EC50.
target: Muscarinic acetylcholine receptor M2 (Homo sapiens); assay: Agonist activity at recombinant human muscarinic M2 receptor expressed in HEK293 cells assessed as inhibition of forskolin-mediated cAMP accumulation after 10 mins by FRET assay; assay type: functional, cell-based

SMILES_TEXT	EC50
COc1cccc(CC[N+](C)(C)C)c1	6.3 µM
C[N+](C)(C)CCc1ccc2c(c1)OCC2	11 µM

* * *

Target: Muscarinic acetylcholine receptor M2 (Homo sapiens) (UniProt P08172)
Sequence (whole entry): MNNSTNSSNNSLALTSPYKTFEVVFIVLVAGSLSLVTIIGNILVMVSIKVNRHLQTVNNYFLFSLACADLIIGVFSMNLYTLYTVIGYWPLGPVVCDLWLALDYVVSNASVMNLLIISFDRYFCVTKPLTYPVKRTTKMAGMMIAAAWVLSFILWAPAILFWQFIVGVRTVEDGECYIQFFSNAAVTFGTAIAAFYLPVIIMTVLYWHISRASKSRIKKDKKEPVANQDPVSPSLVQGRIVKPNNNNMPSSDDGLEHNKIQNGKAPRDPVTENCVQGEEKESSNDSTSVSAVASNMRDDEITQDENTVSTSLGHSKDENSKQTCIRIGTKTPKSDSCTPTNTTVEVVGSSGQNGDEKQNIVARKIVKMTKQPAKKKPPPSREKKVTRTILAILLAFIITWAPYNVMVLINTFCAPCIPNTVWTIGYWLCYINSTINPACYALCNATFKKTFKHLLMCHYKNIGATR
Test: Agonist activity at human recombinant muscarinic M2 receptor co-expressed with Galphaqi5-HA in African green monkey COS7 cells assessed as IP accumulation at 100 uM after 2 hrs in presence of myo-[3H]inositol by liquid scintillation counting method relative to carbachol
Assay type: functional
Below, each entry is listed alongside its reported Emax.
QUANTITY_NAME: Emax

COMPOUND	RESULT
C[N+](C)(C)CCc1cccc(OC(F)(F)F)c1	< 10%
CN1CCC(COCc2cccnc2)C1 (stereo unspecified)	38%
COc1cccc(C(=O)C[N+](C)(C)C)c1	< 10%
CCOc1cccc(CC[N+](C)(C)C)c1	40%
COc1cccc(C(O)C[N+](C)(C)C)c1 (stereo unspecified)	< 10%
C[N+](C)(C)CCc1cccc(Cl)c1	< 10%

* * *

target: Muscarinic acetylcholine receptor M1 (Homo sapiens, UniProt P11229); assay: Displacement of [3H]N-methyl-scopolamine from human recombinant muscarinic M1 receptor expressed in CHO-FlpIn cells after 6 hrs by liquid scintillation counting method; type: cell-based; settings: read-out: Ki(app)
Sequence (P11229 whole entry): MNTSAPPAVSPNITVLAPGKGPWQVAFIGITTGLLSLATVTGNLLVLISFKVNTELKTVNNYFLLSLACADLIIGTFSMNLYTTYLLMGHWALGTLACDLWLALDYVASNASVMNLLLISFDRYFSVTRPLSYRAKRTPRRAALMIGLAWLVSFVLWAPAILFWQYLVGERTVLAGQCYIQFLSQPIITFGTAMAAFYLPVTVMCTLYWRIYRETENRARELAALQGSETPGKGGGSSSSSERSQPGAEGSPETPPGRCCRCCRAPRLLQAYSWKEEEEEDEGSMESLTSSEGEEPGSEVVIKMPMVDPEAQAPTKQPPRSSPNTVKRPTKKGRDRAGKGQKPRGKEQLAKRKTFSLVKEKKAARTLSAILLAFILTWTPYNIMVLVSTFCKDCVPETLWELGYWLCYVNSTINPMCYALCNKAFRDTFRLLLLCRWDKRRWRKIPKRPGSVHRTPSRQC
pKi: −log10 of the molar value.
QUANTITY_NAME: pKi

SMILES_TEXT	RESULT
COc1cccc(CC[N+](C)(C)C)c1	4.28
C[N+](C)(C)CCc1ccc2c(c1)OCC2	5.17

* * *

molecular target: Muscarinic acetylcholine receptor M2 (Homo sapiens, UniProt P08172); experiment: Displacement of [3H]N-methyl-scopolamine bromide from human recombinant muscarinic M2 receptor expressed in HEK293T cell membranes after 1 hr by liquid scintillation counting method; set-up: species or system HEK-293T
pKi: −log10 of the molar value.
QUANTITY_NAME: pKi

COMPOUND	EXPERIMENTAL_TARGET	RESULT
COc1cccc(CC[N+](C)(C)C)c1	Muscarinic acetylcholine receptor M2 (Homo sapiens, UniProt P08172)	4.85
C[N+](C)(C)CCc1cccc(OC(F)(F)F)c1	Muscarinic acetylcholine receptor M2 (Homo sapiens, UniProt P08172)	5.04
C[N+](C)(C)CCCc1ccc2ccoc2c1	Muscarinic acetylcholine receptor M2 (Homo sapiens, UniProt P08172)	6.64
COc1cccc2c1CCC(C[N+](C)(C)C)C2 (stereo not given)	Muscarinic acetylcholine receptor M2 (Homo sapiens, UniProt P08172)	4.85
c1csc(COC2CCNC2)n1 (stereo not given)	Muscarinic acetylcholine receptor M2 (Homo sapiens, UniProt P08172)	5.22

* * *

target: Muscarinic acetylcholine receptor M1 (Homo sapiens); assay: Displacement of [3H]N-methyl-scopolamine bromide from human recombinant muscarinic M1 receptor expressed in HEK293T cell membranes after 1 hr by liquid scintillation counting method; type: cell-based, HEK-293T
Ranges used to classify Ki: small value = under 2 µM, mid value = from 2 µM up to 20 µM, large value = 20 µM and over

COMPOUND	DISCRETE_LABEL
C[N+](C)(C)CCc1ccc2c(c1)OCC2	mid value
C[N+]1(C)CCC(OCc2nccs2)C1 (stereo unspecified)	mid value
COc1cccc(CC[N+](C)(C)C)c1	large value
C[N+](C)(C)CCCc1ccc2ccoc2c1	small value
COc1cccc(C(=O)C[N+](C)(C)C)c1	small value
COc1cccc(CCC[N+](C)(C)C)c1	small value
c1cncc(COC2CCCNC2)c1 (stereo unspecified)	mid value
c1csc(COC2CCNC2)n1 (stereo unspecified)	mid value
CN(C)C1CCc2cccc(O)c2C1 (stereo unspecified)	large value
C[N+](C)(C)CCc1ccc2ccoc2c1	small value
CN1CCC(COCc2cccnc2)C1 (stereo unspecified)	large value
COc1ccc(F)c(CC[N+](C)(C)C)c1	mid value
COc1cccc2c1C[N+](C)(C)CC2	mid value
COc1ccccc1CC[N+](C)(C)C	mid value
COc1cccc2c1CC(C[N+](C)(C)C)CC2 (stereo unspecified)	small value
COc1cccc2c1CCC([N+](C)(C)C)C2 (stereo unspecified)	mid value
COc1cccc2c1CCC(C[N+](C)(C)C)C2 (stereo unspecified)	mid value

* * *

Below, each entry is listed alongside its reported Ki.
target: Muscarinic acetylcholine receptor M3 (Homo sapiens, UniProt P20309); assay: Displacement of [3H]N-methyl-scopolamine bromide from human recombinant muscarinic M3 receptor expressed in HEK293T cell membranes after 1 hr by liquid scintillation counting method; assay type: cell-based, HEK-293T
Sequence (P20309 whole entry): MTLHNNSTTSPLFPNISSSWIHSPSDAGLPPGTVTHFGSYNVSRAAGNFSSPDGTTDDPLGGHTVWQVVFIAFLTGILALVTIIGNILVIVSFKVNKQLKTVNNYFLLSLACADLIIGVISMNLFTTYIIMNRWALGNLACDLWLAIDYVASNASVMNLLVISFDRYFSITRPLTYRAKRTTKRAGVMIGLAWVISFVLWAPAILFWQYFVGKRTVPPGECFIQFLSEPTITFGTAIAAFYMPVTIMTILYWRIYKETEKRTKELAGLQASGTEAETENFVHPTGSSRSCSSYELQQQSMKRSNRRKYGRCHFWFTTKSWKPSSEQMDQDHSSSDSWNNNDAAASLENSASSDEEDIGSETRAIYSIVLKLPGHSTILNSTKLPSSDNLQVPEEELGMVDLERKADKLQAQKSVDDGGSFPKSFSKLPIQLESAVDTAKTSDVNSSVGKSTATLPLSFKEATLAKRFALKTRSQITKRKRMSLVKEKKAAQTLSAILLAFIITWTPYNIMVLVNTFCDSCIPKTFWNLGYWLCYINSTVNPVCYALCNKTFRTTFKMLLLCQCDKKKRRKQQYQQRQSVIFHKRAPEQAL

COMPOUND	VALUE_MODIFIER	Ki (µM)
CN1CCCC(OCc2cccnc2)C1 (stereo unspecified)	=	42
C[N+](C)(C)C1CCc2ccc3ccoc3c2C1 (stereo unspecified)	=	0.69
COc1cccc2c1CC(N(C)C)CC2 (stereo unspecified)	=	0.83
COc1cccc(CCC[N+](C)(C)C)c1	=	0.62
COc1cccc(C2CC2C[N+](C)(C)C)c1 (stereo unspecified)	=	8.7
c1csc(COC2CCNC2)n1 (stereo unspecified)	=	4.1
COc1cccc2c1CC([N+](C)(C)C)CC2 (stereo unspecified)	=	2
COc1cccc(C#CC[N+](C)(C)C)c1	=	20
COc1cccc2c1CCC(C[N+](C)(C)C)C2 (stereo unspecified)	=	25
COc1cccc2c1CCC([N+](C)(C)C)C2 (stereo unspecified)	=	4
COc1cccc(C(O)C[N+](C)(C)C)c1 (stereo unspecified)	=	12
CN1CCC(COCc2cccnc2)C1 (stereo unspecified)	=	75
COc1cccc(C(=O)C[N+](C)(C)C)c1	=	0.21
c1cncc(COC2CCCNC2)c1 (stereo unspecified)	=	10
C[N+](C)(C)CCCc1ccc2ccoc2c1	=	0.14
C[N+](C)(C)CCc1cccc(Cl)c1	=	5.8
C[N+](C)(C)CCc1cccc(OC(F)(F)F)c1	=	11
COc1cccc2c1C[N+](C)(C)CC2	=	5.8
CN(C)C1CCc2cccc(O)c2C1 (stereo unspecified)	=	28
COc1cccc(CC[N+](C)(C)C)c1	>	50
C[N+](C)(C)CC#CCOC1=NOCC1	=	0.55

The measurements presented in this section are drawn from ChEMBL document CHEMBL4024758.
